Value source: ChEMBL document CHEMBL2218924

Would you kindly list residual activity for each of these molecules?
tested target: Mitogen-activated protein kinase 14 (Homo sapiens)
condition notes: at 10 µM
Kindly answer with a numeric value in %, unit omitted.

Input: Fill in: residual activity of N#C/C(=C(\N)Sc1ccc(N)cc1)c1ccccc1C(F)(F)F is ___
Output: 82

Input: Using the record for CO[C@@H]1[C@H](N(C)C(=O)c2ccccc2)C[C@H]2O[C@]1(C)n1c3ccccc3c3c4c(c5c6ccccc6n2c5c31)C(=O)NC4 , report its residual activity.
Output: 78

Input: What does the record list as residual activity for Ic1cccc(CSc2nnc(-c3ccncc3)o2)c1 ?
Output: 79

Input: // residual activity lookup, key: CC(C)n1cnc2c(NCc3ccccc3)nc(NCCCO)nc21
Output: 82
